The origin of these recorded values is PubChem BioAssay AID1963432.

tested on: SYO-1 complex spheroid growth, percent test/control; assay: Anticancer human tumor SYO-1 cell line growth inhibition [Asc]; settings: curve of first compound; second compound 0.01 µM;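 also: compound exposure lasted 7 days after spheroids grew 3 days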
Let's look at some molecules and their measured IC50.

Worked cases, answers included:
* NC1CCC(NC2CC2c2ccccc2)CC1 (centres undefined) + CNC(C)C(=O)NC1CN(S(=O)(=O)c2cccc(S(=O)(=O)N3CCC4CCC(C(=O)NC(c5ccccc5)c5ccccc5)N4C(=O)C(NC(=O)C(C)NC)C3)c2)CCC2CCC(C(=O)NC(c3ccccc3)c3ccccc3)N2C1=O | > 100 nM
* CCN1C(C(=O)NC23CCC(C(=O)O)(CC2)CC3)C(c2cccc(Cl)c2F)C2(C(=O)Nc3cc(Cl)ccc32)C12CCCCC2 (centres undefined) + CNC(C)C(=O)NC1CN(S(=O)(=O)c2cccc(S(=O)(=O)N3CCC4CCC(C(=O)NC(c5ccccc5)c5ccccc5)N4C(=O)C(NC(=O)C(C)NC)C3)c2)CCC2CCC(C(=O)NC(c3ccccc3)c3ccccc3)N2C1=O | 146 nM
* Cn1ncnc1[C@H]1c2n[nH]c(=O)c3cc(F)cc(c23)N[C@@H]1c1ccc(F)cc1 + CNC(C)C(=O)NC1CN(S(=O)(=O)c2cccc(S(=O)(=O)N3CCC4CCC(C(=O)NC(c5ccccc5)c5ccccc5)N4C(=O)C(NC(=O)C(C)NC)C3)c2)CCC2CCC(C(=O)NC(c3ccccc3)c3ccccc3)N2C1=O | > 100 nM

--- query ---
Problem: Query (molecule): CCN1CCN(Cc2ccc(Nc3ncc(F)c(-c4cc(F)c5nc(C)n(C(C)C)c5c4)n3)nc2)CC1 + CNC(C)C(=O)NC1CN(S(=O)(=O)c2cccc(S(=O)(=O)N3CCC4CCC(C(=O)NC(c5ccccc5)c5ccccc5)N4C(=O)C(NC(=O)C(C)NC)C3)c2)CCC2CCC(C(=O)NC(c3ccccc3)c3ccccc3)N2C1=O ; field requested: IC50
Solution: > 1000 nM

---

Each entry below carries its recorded viability, T/C.
test system: SYO-1 complex spheroid growth, percent test/control; experiment: Anticancer human tumor SYO-1 cell line growth inhibition [Asc]; details: second compound 0.0949 µM; first compound 0.0316 µM; stronger effect = lower value;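 also: compound exposure lasted 7 days after spheroids grew 3 days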;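 as to viability, T/C: 100% = DMSO vehicle control viability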
Number in %, nothing else.

Worked examples, 3 compounds total:
- C=CC(=O)N1CCN(c2nc(=O)n(-c3c(C)ccnc3C(C)C)c3nc(-c4c(O)cccc4F)c(F)cc23)C(C)C1 (centres undefined) + CCN1C(C(=O)NC23CCC(C(=O)O)(CC2)CC3)C(c2cccc(Cl)c2F)C2(C(=O)Nc3cc(Cl)ccc32)C12CCCCC2: 78.5
- C=C(F)C(=O)N1CCN(c2nc(OCC3CCCN3C)nc3c2CCN(c2cccc4cccc(Cl)c24)C3)CC1CC#N (centres undefined) + CCN1C(C(=O)NC23CCC(C(=O)O)(CC2)CC3)C(c2cccc(Cl)c2F)C2(C(=O)Nc3cc(Cl)ccc32)C12CCCCC2: 87.1
- COc1c(OCCCN2CCOCC2)ccc2c3n(c(=NC(=O)c4cnc(N)nc4)nc12)CCN3 + CCN1C(C(=O)NC23CCC(C(=O)O)(CC2)CC3)C(c2cccc(Cl)c2F)C2(C(=O)Nc3cc(Cl)ccc32)C12CCCCC2: 77.2

# context switch: different compound, same viability, T/C
Problem: # viability, T/C lookup, item CNC(C)C(=O)NC1CN(S(=O)(=O)c2cccc(S(=O)(=O)N3CCC4CCC(C(=O)NC(c5ccccc5)c5ccccc5)N4C(=O)C(NC(=O)C(C)NC)C3)c2)CCC2CCC(C(=O)NC(c3ccccc3)c3ccccc3)N2C1=O (centres undefined) + CCN1C(C(=O)NC23CCC(C(=O)O)(CC2)CC3)C(c2cccc(Cl)c2F)C2(C(=O)Nc3cc(Cl)ccc32)C12CCCCC2
Solution: 76.7
